biological target: human natriuretic peptide receptor-A expressed in 293 cells (human, UniProt P16066); assay: competition with 30 pM 125I-rat ANP on membranes of 293 cells expressing NPR-A; unit not given
measure: affinity (NPR-A)
// no unit, no text: just the number

Known results for binders:
binder: SLRRSSCFGGRIDRIRAQSGLGCNSFRY [hANP Gly16Arg (SEQ ID NO: 52)]
affinity (NPR-A): 17.2
--
binder: SLRRSSCFGGRIDRIGAQSGLGCNSFRY [hANP (SEQ ID NO: 51)]
affinity (NPR-A): 43.5
--
binder: SPKMVQGSGCFGGRMDRIRSSSGLGCKVLRRH [hBNP Arg13Gly, Lys14Arg, Ser19Arg (SEQ ID NO:49)]
affinity (NPR-A): 518

Could you now look at the following binder, please?
input: Using known records, supply affinity (NPR-A) for SLRRSSCFGGRIDRIGAQSFWRCNSFRY [hANP Net12Ile, Gly20Phe, Leu21Trp, Gly22Arg (SEQ ID NO:50)]
output: 507
